assay: cell viability loss, SR-BI-overexpressing CHO line – CellTiter-Glo luminescence, 24 h, dry powder, set 3, cytotoxicity control for SR-BI HDL uptake inhibitor project, dose response (AID 588826); settings: ldlA[mSR-BI] CHO cells viability, CellTiter-Glo ATP, 24 h; at 35 µM (top of the series)
The source made the active and inactive calls.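 Rule for the calls: active = compounds cutting cell viability whose fitted half-maximal concentration is at most twice the top tested dose; inconclusive = flat loss between 30% and 70%, or poor curve fit; inactive = opposite effect, flat within 30%, or weaker potency.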
activity change, negative = cytotoxicity by entry:
property.label: activity change, negative = cytotoxicity

1. CC1CCC/C=C/C2CC(O)CC2C(O)/C=C\C(=O)O1 (centres undefined)
-9.81% (inactive)
2. CCC(=O)N1CCc2cc(-c3csc(NC(=O)c4cccc(C#N)c4)n3)ccc21
-0.356% (inactive)
3. COc1ccc(-c2nnn(CC(=O)N(C3CCCC3)C(C)C(=O)NC3CCCC3)n2)cc1OC (centres undefined)
-0.791% (inactive)
4. CCC(=O)N1CCc2cc(-c3csc(NC(=O)c4cccc(OC)c4)n3)ccc21
3.32% (inactive)
5. CC(C)(Sc1cc(C(C)(C)C)c(O)c(C(C)(C)C)c1)Sc1cc(C(C)(C)C)c(O)c(C(C)(C)C)c1
-1.63% (inactive)
6. COCC(=O)N1CCc2cc(-c3csc(NC(=O)c4cc(OC)cc(OC)c4)n3)ccc21
4.05% (inactive)
7. COc1cc(OC)cc(C(=O)Nc2nc(-c3ccc4c(c3)CCN4C(=O)CN(C)C)cs2)c1
-10.2% (inactive)
8. CC(=O)N1CCc2cc(-c3nc(NC(=O)c4cccc(OC(F)(F)F)c4)sc3C)ccc21
1.36% (inactive)
9. CCC(=O)N1CCc2cc(-c3csc(NC(=O)c4ccc(F)c(OC)c4)n3)ccc21
-12.3% (inactive)

---

activity change, negative = cytotoxicity by entry:
assay: cell viability loss, SR-BI-overexpressing CHO line – CellTiter-Glo luminescence, 24 h, dry powder, set 3, cytotoxicity control for SR-BI HDL uptake inhibitor project, dose response (AID 588826); conditions: ldlA[mSR-BI] CHO cells viability, CellTiter-Glo ATP, 24 h; at 35 µM (top of the series)
property.label: activity change, negative = cytotoxicity (%)

1. COc1ccc(-c2nnn(CC(=O)N(CC3CCCCC3)C(C)C(=O)NC3CCCC3)n2)cc1OC (configuration not stated)
3.32
2. COc1ccc(-c2nnn(CC(=O)N(C3CCCCC3)C(C(=O)NC3CCCC3)C(C)C)n2)cc1OC (configuration not stated)
-15.8
3. C[C@H](C(=O)NC1CCCC1)N(C(=O)Cn1nnc(-c2ccc3c(c2)OCO3)n1)C1CCCCC1
-10.6
4. CCC(=O)N1CC(C)(C)c2cc(-c3csc(NC(=O)c4cc(OC)cc(OC)c4)n3)ccc21
-3.5
5. CCOC(=O)N1CCC(NC(=O)c2ccc3c(c2)N(Cc2ccc(F)cc2)CCS3)CC1
-13.6
6. CCC(=O)N1CCc2cc(-c3csc(NC(=O)c4ccco4)n3)ccc21
-2.4
7. COc1ccc(-c2nnn(CC(=O)N(C3CCCCC3)C(C)C(=O)NC3CCCC3)n2)cc1OC (configuration not stated)
37.1

---

activity change, negative = cytotoxicity by entry:
test: cell viability loss, SR-BI-overexpressing CHO line – CellTiter-Glo luminescence, 24 h, dry powder, set 3, cytotoxicity control for SR-BI HDL uptake inhibitor project, dose response (AID 588826); settings: ldlA[mSR-BI] CHO cells viability, CellTiter-Glo ATP, 24 h; at 35 µM (top of the series)
property.label: activity change, negative = cytotoxicity (%)

1) O=C(CN(C(=O)Cn1nnc(-c2ccc3c(c2)OCO3)n1)C1CCCCC1)NC1CCCC1
-3.34
2) COc1ccc(-c2cc(CC(=O)N(C3CCCCC3)C(C)C(=O)NC3CCCC3)no2)cc1OC (centres undefined)
3.77
3) CCC(=O)N1CCc2cc(-c3csc(NC(=O)c4ccc5c(c4)OCO5)n3)ccc21
1.94
4) COc1ccc(-c2nnn(CC(=O)N(C3CCN(C)CC3)C(C)C(=O)NC3CCCC3)n2)cc1OC (centres undefined)
9.25
5) CC(C(=O)NC1CCCC1)N(C(=O)Cn1nnc(-c2ccccc2)n1)C1CCCCC1 (centres undefined)
4.27
6) CCC(=O)N1CCc2cc(-c3csc(NC(=O)c4ccc(Cl)s4)n3)ccc21
-1.8
7) CCNC(=O)N1CCc2cc(-c3csc(NC(=O)c4cc(OC)cc(OC)c4)n3)ccc21
-8.64
8) COc1cc(OC)cc(C(=O)Nc2nc(-c3ccc4c(c3)CCN4C(=O)OC(C)(C)C)cs2)c1
5.45
9) C[C@@H]1CN([C@H](C)CO)C(=O)c2cc(NC(=O)Cc3cn(C)c4ccccc34)ccc2O[C@H]1CN(C)S(=O)(=O)c1ccc(F)cc1
-4.67
